Where these numbers come from: the supplement of paper PMC5844555

Tested on: RB1
TEST METHOD NOTES: 3' UTR reporter interaction score (median-centred robust z-score of log2 firefly/Renilla activity); higher = less repression of the 3' UTR reporter
DETAILS: HEK293T; 48 h
ENDPOINT LABEL: 3' UTR reporter interaction score

Field 3' UTR reporter interaction score (entry `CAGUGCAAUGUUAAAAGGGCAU` ) reads 1.55

Summary for this sequence, `CUGGGAUCUCCGGGGUCUUGGUU` : 3' UTR reporter interaction score is 2.57

Short answer for `AGGCACGGUGUCAGCAGGC` : 3' UTR reporter interaction score was 0.0845

`AAAGUAGCUGUACCAUUUGC` yielded 3' UTR reporter interaction score of -0.735

Entry `UUUAGGAUAAGCUUGACUUUUG` — recorded 3' UTR reporter interaction score = -0.349

# 3' UTR reporter interaction score (sequence: `CAAAGAAUUCUCCUUUUGGGCUU` ) is 1.54

According to the records, this sequence `GAAGUUGUUCGUGGUGGAUUCG` displays 3' UTR reporter interaction score of 1.05

The sequence identified as `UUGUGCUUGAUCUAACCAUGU` registered its 3' UTR reporter interaction score at 0.758

Reported 3' UTR reporter interaction score for `UUUCCAUAGGUGAUGAGUCAC` was 0.93

get_value(item= `UGCACCAUGGUUGUCUGAGCAUG` , readout=3' UTR reporter interaction score) returns 0.168

Field 3' UTR reporter interaction score (entry `UCACAGUGAACCGGUCUCUUUU` ) reads 1.15

Note to self: 3' UTR reporter interaction score recorded for `UAAAGUAAAUAUGCACCAAAA` was -0.322

Value of measured 3' UTR reporter interaction score for the entry `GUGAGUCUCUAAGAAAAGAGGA` : -0.543

Kindly note the recorded 3' UTR reporter interaction score for `AAAAGCUGGGUUGAGAGGGCGAA` , which is 0.499

Form field 3' UTR reporter interaction score, entry `AGACUUCCCAUUUGAAGGUGGC` : 0.0148

Entry `GAACGCCUGUUCUUGCCAGGUGG` — recorded 3' UTR reporter interaction score = 0.00732

3' UTR reporter interaction score recorded for this sequence, `UAAGUGCUUCCAUGUUUUGGUGA` , is 1.03

Entry `AGGAGGCAGCGCUCUCAGGAC` ; 3' UTR reporter interaction score = 0.463

`UCGUGCAUCCCUUUAGAGUGUU` yielded 3' UTR reporter interaction score of 1.71

Lab note: measured 3' UTR reporter interaction score of `GAGGUUGUCCGUGGUGAGUUCG` was -0.327

Value of 3' UTR reporter interaction score reported for the sequence `AGUGGUUUUACCCUAUGGUAG` is 1.79

# 3' UTR reporter interaction score of `AAUGGCGCCACUAGGGUUGUGCA` = -0.957

Reported 3' UTR reporter interaction score ( `GGCUGGCUCGCGAUGUCUGUUU` ) = 0.183

For this sequence ( `UGAGCUGCUGUACCAAAAU` ), measured 3' UTR reporter interaction score is 0.104

get_value(item= `UAGGUAGUUUCCUGUUGUUGG` , readout=3' UTR reporter interaction score) returns -0.415

`CAAAGCGCUUCCCUUUGGAGC` yielded 3' UTR reporter interaction score of -0.468

3' UTR reporter interaction score reading for `CUCCUGACUCCAGGUCCUGUGU` : 0.546

For reference, reported 3' UTR reporter interaction score for `AGGGUGUUUCUCUCAUCUCU` stands at -0.774

Memo: `GCACAUUACACGGUCGACCUCU` , reported 3' UTR reporter interaction score: -0.0189

GET /value?item= `AAAGUGCUUCCCUUUGGACUGU` &field=3' UTR reporter interaction score returns 1.36

Lookup result for `UUUCCUAUGCAUAUACUUCUUU` ; measured 3' UTR reporter interaction score: 0.265

Record summary for `CAUCUUACCGGACAGUGCUGGA` : reported 3' UTR reporter interaction score = -0.297

// 3' UTR reporter interaction score value for `AGGUUGACAUACGUUUCCC` : 0.54
